run_description: Cellular Toxicity (caspase-3) Jurkat (AID 655);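 note: cells exposed to compound for 16 h at 37 °C before reading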
run_conditions: Jurkat caspase-3 activation, luminescence, DMSO = 0%, tamoxifen = 100%; at 92.2 µM (top of the series)
Results filed as inconclusive are left out. The source made the active and inactive calls. Calls come from the whole dose curve; as a rule, active = well fitted activation curve with a large enough effect; inconclusive = small, poorly fitted or top-dose-only effect; inactive = flat fitted curve, though single readings scatter.
Readings of caspase-3 activation for the listed molecules

Use these answered entries as a reference point.
{"columns": ["molecule", "caspase-3 activation"],
 "data": [
  ["CCNc1nc(Cl)nc(NC(C)C)n1", "0.071% (inactive)"],
  ["Clc1nc(Cl)nc(Cl)n1", "0.301% (inactive)"],
  ["C1CCC2CCCCC2C1 (configuration not stated)", "1.3% (inactive)"],
  ["Nc1c(Cl)c(Cl)nc(C(=O)O)c1Cl", "0.643% (inactive)"],
  ["Cc1ccc(O)c(C)c1", "2.67% (inactive)"],
  ["C=CC(=O)OCC", "-0.667% (inactive)"]
]}

[in] What caspase-3 activation value was documented for this molecule, ClC1=C(Cl)C2(Cl)C3C4C=CC(C4)C3C1(Cl)C2(Cl)Cl (configuration not stated) ?
[out] 6.54% (inactive)

[in] Can you handle C=C(Cl)Cl next?
[out] 0.59% (inactive)

[in] Now the molecule ClCBr
[out] -0.634% (inactive)

[in] Cool, now C=CC(C)=O
[out] -0.622% (inactive)

[in] Then what about the molecule CC(Cl)Cl ?
[out] 1.86% (inactive)

[in] // query: CCCCOCCOP(=O)(OCCOCCCC)OCCOCCCC
[out] 1.12% (inactive)

----------
Listed here: items and their measured activity change, negative = cytotoxicity.
run_description: Cell Viability - N2a (AID 540);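 note: cells exposed to compound for 40 h at 37 °C; plate controls were DMSO alone for no effect and tamoxifen control for full effect; nearly all actives have a fitted effect of over 45% in size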
run_conditions: N2a mouse neuroblastoma cell viability; at 92.2 µM (top of the series)
Inconclusive results are not listed.
Number in %, nothing else.

# count of solved cases: 3
{"columns": ["compound", "measured_property", "unit_string", "result_number"],
 "data": [
  ["C=C(C)C#N", "activity change, negative = cytotoxicity", "%", 1.28],
  ["OCC(Br)CBr (centres undefined)", "activity change, negative = cytotoxicity", "%", -8.1],
  ["ClC(Cl)=C(Cl)C(Cl)=C(Cl)Cl", "activity change, negative = cytotoxicity", "%", -4.4]
]}

[in] Find the recorded activity change, negative = cytotoxicity belonging to S=C=Nc1cccc2ccccc12 and report it.
[out] 6.83

[in] Try the compound CNC(=O)O/N=C/C(C)(C)SC
[out] -2.66

[in] Field entry: C=C(Cl)Cl
[out] 3.46

[in] Proceed to C1CCC2CCCCC2C1 (centres undefined)
[out] 2.93

[in] Could you do the same for COP(=S)(OC)Oc1ccc([N+](=O)[O-])cc1 , please?
[out] -21.2

----------
run_description: Cell Viability - HUV-EC-C (AID 542);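 note: cells exposed to compound for 40 hours; nearly all actives have a fitted effect of over 35% in size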
run_conditions: HUV-EC-C endothelial cell viability, qHTS; series mostly up to 92.2 µM
Records with an inconclusive call do not appear. Active and inactive are the calls of the source. Calls follow the shape of the dose curve; as a rule, active = well fitted cell-killing curve with a large enough effect; inconclusive = small, poorly fitted or top-dose-only effect, or effect the other way; inactive = flat fitted curve, though single readings scatter.
Assign a class; possible classes are 1 (active), 0 (inactive)

{"columns": ["compound", "group"],
 "data": [
  ["C=CCOC(=O)c1ccccc1N", 0]
]}

[in] Each compound tested received a call. Report the one for CCOCN(C(=O)CCl)c1c(C)cccc1CC .
[out] 1

[in] Now consider C=CCc1ccc(OC)cc1 and answer again.
[out] 0

[in] For C=C(C)C#N then?
[out] 0

[in] Next: O=[N+]([O-])c1ccc(Cl)c(Cl)c1
[out] 0

[in] Query Clc1ccc2ccccc2c1 next
[out] 0

FYI, the data here is from PubChem BioAssay (NCATS).
